Test system: A549
Assay: Cytotoxicity against human A549 cells
Assay type: functional, cell-based
measured.parameter: IC50 (µg/mL)
One number for each entry, in µg/mL.

According to the records, this compound CC(=O)O[C@@H]1[C@H]2[C@@]3(C)O[C@H]3[C@@H](O)[C@H](OC(C)=O)[C@]2(C)[C@@H](OC(C)=O)[C@H](OC(C)=O)C/C(C)=C\[C@@H]2OC(=O)[C@]3(C)O[C@@]213 [STECHOLIDE L] displays IC50 of 2.5
